molecular target: Mannose-6-phosphate isomerase (Homo sapiens) (UniProt P34949); assay: MPI inhibition at elevated mannose 6-phosphate – biochemical, fluorescence intensity, high mannose 6-phosphate, primary screen (AID 1220); details: recombinant PMI enzyme, coupled fluorescence intensity; at 20 µM
Sequence (P34949 whole entry, looked up): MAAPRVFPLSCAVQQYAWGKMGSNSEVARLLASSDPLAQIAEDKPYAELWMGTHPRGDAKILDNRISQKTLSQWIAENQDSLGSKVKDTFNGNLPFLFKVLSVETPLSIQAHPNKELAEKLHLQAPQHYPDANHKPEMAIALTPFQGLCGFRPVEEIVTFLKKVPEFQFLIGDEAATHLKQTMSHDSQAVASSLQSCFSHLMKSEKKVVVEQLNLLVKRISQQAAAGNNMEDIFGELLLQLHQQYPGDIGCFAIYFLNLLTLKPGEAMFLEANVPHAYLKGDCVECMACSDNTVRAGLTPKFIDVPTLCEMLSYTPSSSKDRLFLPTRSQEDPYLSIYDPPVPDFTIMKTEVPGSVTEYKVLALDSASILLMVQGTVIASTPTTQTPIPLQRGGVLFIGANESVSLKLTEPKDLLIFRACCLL
Hit rate of the full screen: of about 190,000 compounds, about 1,300 (0.68%) were called active. Cut-off read from the data, not from the text of the source: active = inhibition above about 50%; inactive = the rest. For the sample, actives were picked, then their nearest neighbours and some compounds at random.
Use one of these outcomes when replying: active, inactive

O=C(NC1=C(Nc2ccc(Cl)cc2)C(=O)c2ccccc2C1=O)c1ccccc1 : active
Oc1ccc(Cn2ccnc2)c2cccnc12 : inactive
COc1cc(C2C3C(=O)N(Cc4ccccc4)C(=O)C3ON2c2ccccc2)cc(OC)c1O (stereo not given) : active

How did this test come out for COc1cc(C2C3C(=O)N(Cc4ccccc4)C(=O)C3ON2c2ccccc2)cc(OC)c1OC (stereo not given) ?
inactive

Check CCOC(=O)C1=C(C)NC(C)=C(C(=O)OCC)C1C(=O)OCC(=O)c1ccc2c(c1)OCCO2 too.
inactive

###

biological target: Mannose-6-phosphate isomerase (Homo sapiens); assay: MPI inhibition at elevated mannose 6-phosphate – biochemical, fluorescence intensity, high mannose 6-phosphate, primary screen (AID 1220); conditions: recombinant PMI enzyme, coupled fluorescence intensity; at 20 µM; stronger effect = higher value
In all, about 190,000 compounds went through this assay and about 1,300 (0.68%) were called active. The sample as a whole holds a higher share of actives than the screen did.
reported.property: inhibition (%)
Return type: number; implicit unit %.

# query: inhibition of entry COc1ccc(NC(=S)NC(C)Cc2cccs2)cc1 (configuration not stated)
3.7

And CCn1c(SCc2nc3sc(C(=O)O)c(C)c3c(=O)[nH]2)nnc1-c1ccc(Cl)cc1 ?
-1

Subsequent entry: Cc1nn(CCc2nn[nH]n2)c2nc(-c3ccc(Br)cc3)cc(C(F)(F)F)c12
4.9

Also OCc1ccccc1N=c1ssnc1Cl ?
43.7

Request: CO/N=C/CC(=O)c1cnc(-c2ccc(Cl)cc2)s1
53.8

Follow-up entry: CC(C)CCN1CCN(C2CCN(c3ccccc3)CC2)CC1CCO (configuration not stated)
7

Lookup c1ccc(-n2cnc3ccccc32)cc1
-1.2

###

biological target: Mannose-6-phosphate isomerase (Homo sapiens) (UniProt P34949); assay: MPI inhibition at elevated mannose 6-phosphate – biochemical, fluorescence intensity, high mannose 6-phosphate, primary screen (AID 1220); conditions: recombinant PMI enzyme, coupled fluorescence intensity; at 20 µM
Among all 190,000 compounds or so, about 1,300 (0.68%) were called active. Cut-off read from the data, not from the text of the source: active = inhibition above about 50%; inactive = the rest. Shown is part of a subset that was picked to be rich in actives.
Write down the outcome that applies. Available outcomes: class 1 = active, class 0 = inactive

COc1ccc(CN2CCN(S(=O)(=O)c3ccc(NC(C)=O)cc3)CC2)cc1OC : class 0
C/C=C(\C)CN1CCc2cc(OC)c(OC)cc2C1 : class 0
COc1cc(CN2CCN(c3ccccc3F)CC2)cc(OC)c1O : class 0
Cc1cc(C(=O)CSCCCn2c(=O)[nH]c3ccccc32)c(C)n1C : class 0
COc1ccc(CN2CCc3cc(OC)c(OC)cc3C2)cc1O : class 0

Recorded test call requested for COc1cc(CN2CCN(S(=O)(=O)c3ccc(NC(C)=O)cc3)CC2)cc(OC)c1O
class 1

Now consider Cc1noc(C)c1COC(=O)CNC(=O)c1cccc(F)c1 and answer again.
class 0

Now this one: COc1ccc(Cn2nnc3c(=O)[nH]c(C4CCCN(C(=O)c5ccccc5)C4)nc32)cc1 (stereo not given)
class 0

Same for Cc1ccc(C2C3CN(C(C)C)CC=C3C(C#N)=C(N)C2(C#N)C#N)cc1 (stereo not given)
class 0

Please do the same for Fc1ccc(NC(=S)N2CCn3cccc3C2c2cccnc2)cc1 (stereo not given) as well.
class 0

###

biological target: Mannose-6-phosphate isomerase (Homo sapiens) (UniProt P34949); assay: MPI inhibition at elevated mannose 6-phosphate – biochemical, fluorescence intensity, high mannose 6-phosphate, primary screen (AID 1220); details: recombinant PMI enzyme, coupled fluorescence intensity; at 20 µM; stronger effect = higher value
Out of some 190,000 compounds screened, about 1,300 (0.68%) were called active. The full list was thinned out, with actives kept by preference.
reported.property: inhibition (%)
Unit % implied. Number only.

Param item = Oc1c(Cl)cc(Cl)cc1/C=N/Nc1ncc(Br)cn1 ; retrieve measured inhibition.
-22.9

Same read-out for O=C(O)/C(=C\c1ccccc1Cl)c1ccc(S(=O)(=O)N2CCCCC2)s1 ?
-23

How about Cc1ccc(NC(=S)Nc2ccc3cn[nH]c3c2)cc1 ?
57.8

Do the same for CCCCn1c2nc3ccccc3nc2c2c(=O)n(C(C)CC)cnc21 (centres undefined) please
53.2

// query: O=C(CN1N=C(c2ccc(Cl)cc2)CCC1=O)NCc1cccs1
59.2

Now consider O=C(CN1N=C(c2ccccc2)CCC1=O)NCc1cccs1 and answer again.
6.5

Same thing, different molecule: O=C(CCC(=O)N/N=C/c1cc(Cl)cc(Cl)c1O)NCc1ccccc1
17.9

Try this molecule next: Cc1ccccc1NC(=S)Nc1ccc2cn[nH]c2c1
61.3

Next molecule up: CCC(=O)Nc1nc2c(s1)COc1ccccc1-2
6.3

Request: Oc1ccc(Cl)cc1C=Nc1ccc(Br)cc1
8.3

Next molecule up: O=C(O)/C(=C\c1ccc(Br)cc1)c1ccc(S(=O)(=O)N2CCCCC2)s1
3.7

Same thing, different molecule: NC(=O)c1cccc(N=Cc2cc(Cl)cc(Cl)c2O)c1
55.3

Next molecule up: CC(C)c1ccc(NC(=S)Nc2ccc3cn[nH]c3c2)cc1
46.1

Again, but for Cc1ccc(NC(=S)Nc2ccc3cn[nH]c3c2)cc1C
15.4

Moving on to the next molecule: S=C(Nc1ccc2nc(-c3ccccn3)c(-c3ccccn3)nc2c1)N1CCOCC1
-7.8

Please do the same for COc1ccc(S(=O)(=O)N(CC(=O)N2CCN(c3ccccc3OC)CC2)c2ccccc2)cc1 as well.
13.1

What about CC(=O)NC(=S)Nc1sc2c(c1C(N)=O)CCC(C)C2 (centres undefined) ?
-3

Repeat for the following molecule: CC(=O)Oc1ccc2c(C)cc(=O)oc2c1
2

Record: Oc1ccc(NCc2ccccc2OCc2ccccc2F)cc1
25

###

target: Mannose-6-phosphate isomerase (Homo sapiens) (UniProt P34949); test: MPI inhibition at elevated mannose 6-phosphate – biochemical, fluorescence intensity, high mannose 6-phosphate, primary screen (AID 1220); details: recombinant PMI enzyme, coupled fluorescence intensity; at 20 µM
The campaign covered roughly 190,000 compounds. About 1,300 (0.68%) were called active. Rule as the data show it: active = inhibition above about 50%; inactive = the rest. The list comes from a sample in which actives are over-represented; it also holds close analogues and randomly drawn compounds.
Mark one answer only. Choices: active, inactive

Record request — test call for Cc1cccc(NC(=O)CS(=O)(=O)c2cn(C)c3ccccc23)c1
inactive

Param item: CCn1c(CN2CCN(CCO)CC2)nc2ccccc21
inactive

Another compound to look at: Cc1ccc2c(c1)nnn2C1CCN(S(=O)(=O)c2ccc(C(=O)N3C(C)CCCC3C)cc2)CC1 (stereo not drawn)
active

And COc1ccc(-c2cc(C(=O)Nc3cc(C)on3)no2)cc1 ?
inactive

Similarly, O=C(CCNC(=O)Cn1ccc2ccccc2c1=O)NCCCN1CCN(c2ccc(F)cc2)CC1 ?
inactive

For COCCNC(=O)c1ccc2c(c1)NC(=O)CS2 then?
active

Lookup CCCN1CCN(CCCNC(=O)CCNC(=O)Cn2ccc3ccccc3c2=O)CC1
inactive

Param item: CCCn1cc(S(=O)(=O)CC(=O)Nc2ccc(OCC)cc2)c2ccccc21
inactive

// query: Cc1[nH]n(-c2ccccc2)c(=O)c1/C=N/O
inactive

# iterate: CCc1ccc2c(c1)CCCN2C(=O)c1ccccc1C(=O)O
inactive

###

molecular target: Mannose-6-phosphate isomerase (Homo sapiens); test: MPI inhibition at elevated mannose 6-phosphate – biochemical, fluorescence intensity, high mannose 6-phosphate, primary screen (AID 1220); details: recombinant PMI enzyme, coupled fluorescence intensity; at 20 µM; stronger effect = higher value
About 1,300 (0.68%) of roughly 190,000 compounds were called active. The sample holds actives, similar compounds and a random draw of the others, so the mix is not that of the screen.
reported.property: inhibition (%)
Could you give me the number in %? Just the number is fine.

O=C(Cc1ccc(Cl)cc1)N/N=C/c1cccs1 : 15.1
Cc1nnc(Sc2nc3c(c(=O)n(C)c(=O)n3C)n2Cc2ccc(Cl)cc2)s1 : 7.9
Cc1cccc(C)c1-n1cccc1/C=C1\SC(=S)N(c2cccc(C(=O)O)c2)C1=O : 3
N#C/C=C\Oc1ccc(Cl)cc1N : 57.9

Attention now turns to another entry.
Value lookup for inhibition; key = CC(c1ccccc1)n1cc(C(=O)NCCN2CCOCC2)nn1 (stereo not given)
-7.2

###

Below, each of the compounds is paired with its reported inhibition value.
target: Mannose-6-phosphate isomerase (Homo sapiens); assay: MPI inhibition at elevated mannose 6-phosphate – biochemical, fluorescence intensity, high mannose 6-phosphate, primary screen (AID 1220); conditions: recombinant PMI enzyme, coupled fluorescence intensity; at 20 µM; stronger effect = higher value
Screen size: about 190,000 compounds; about 1,300 (0.68%) were called active. The full list was thinned out, with actives kept by preference.

Cc1ccc(-n2cccc2/C=C2\C(=N)N3N=C(c4ccco4)SC3=NC2=O)cc1 : -16.6% (inactive)
Cc1cc([N+](=O)[O-])ccc1NC(=O)C[n+]1ccc(N(C)C)cc1 : -1.5% (inactive)
Cc1ccc(Cl)cc1NC(=O)C[n+]1ccc(Cc2ccc([N+](=O)[O-])cc2)cc1 : 55.3% (active)
CC(C)n1nnnc1SCC(=O)NCc1ccc2c(c1)OCO2 : -4.5% (inactive)
O=C(NC(c1ccccc1)c1cc(Cl)c2cccnc2c1O)c1cccnc1 (centres undefined) : 23.4% (inactive)
Cc1cccc(N2CCC(N3CCN(C4CCCCC4)C(CCO)C3)CC2)c1C (centres undefined) : 22.8% (inactive)

Would you mind telling me what inhibition value was observed for C=CCOc1c(Br)cc(CNc2ccc(NC(=O)C(C)C)c(OC)c2)cc1OCC ?
57.7% (active)

Now give it for CC1CCCCC1NCc1cccc([N+](=O)[O-])c1 (centres undefined) too.
2.2% (inactive)

Another compound to look at: CCN1C(=O)c2cccc3c(S(=O)(=O)NCc4ccccn4)ccc1c23
-3.8% (inactive)

Check O=C(CCC1CCCC1)Nc1nnc(-c2ccc3c(c2)OCO3)s1 too.
1.1% (inactive)

Continue with Cc1ccc([N+](=O)[O-])cc1NC(=O)C[n+]1ccccc1
22.2% (inactive)
